Biological target: T1, orthogonal hCD122 receptor (hoRb), hCD122 with H133D and Y134F (human, UniProt P14784 27-550)
T1 sequence: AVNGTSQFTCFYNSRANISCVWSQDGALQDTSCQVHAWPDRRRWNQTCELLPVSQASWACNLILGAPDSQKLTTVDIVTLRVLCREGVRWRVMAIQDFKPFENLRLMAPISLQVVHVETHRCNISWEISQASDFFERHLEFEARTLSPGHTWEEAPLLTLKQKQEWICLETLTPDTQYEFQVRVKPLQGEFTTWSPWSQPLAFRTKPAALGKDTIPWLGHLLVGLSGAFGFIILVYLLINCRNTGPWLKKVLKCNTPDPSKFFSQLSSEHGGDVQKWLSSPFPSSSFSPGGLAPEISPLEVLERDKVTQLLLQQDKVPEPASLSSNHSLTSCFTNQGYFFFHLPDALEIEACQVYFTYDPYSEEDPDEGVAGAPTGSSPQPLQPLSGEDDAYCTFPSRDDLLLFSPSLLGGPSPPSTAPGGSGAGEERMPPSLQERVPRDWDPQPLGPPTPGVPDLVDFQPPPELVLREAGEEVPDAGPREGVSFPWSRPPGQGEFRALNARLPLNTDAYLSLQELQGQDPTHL
Assay: cell-based or functional assay
QUANTITY KIND: NKL Ortho Proliferation Signal 1:50
I only need the number, thanks.

ΔR81, SQVLKA (ligand) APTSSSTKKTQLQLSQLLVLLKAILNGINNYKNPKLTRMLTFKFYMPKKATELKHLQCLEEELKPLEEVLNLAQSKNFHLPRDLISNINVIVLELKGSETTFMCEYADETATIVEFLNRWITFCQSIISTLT    31900

Query: Give NKL Ortho Proliferation Signal 1:50 for SQVLHA (ligand) APTSSSTKKTQLQLSQLLVLLHAILNGINNYKNPKLTRMLTFKFYMPKKATELKHLQCLEEELKPLEEVLNLAQSKNFHLRPRDLISNINVIVLELKGSETTFMCEYADETATIVEFLNRWITFCQSIISTLT
Response: 13300

Query: Recall and state the measured NKL Ortho Proliferation Signal 1:50 for T3Q, SQVLKA (ligand) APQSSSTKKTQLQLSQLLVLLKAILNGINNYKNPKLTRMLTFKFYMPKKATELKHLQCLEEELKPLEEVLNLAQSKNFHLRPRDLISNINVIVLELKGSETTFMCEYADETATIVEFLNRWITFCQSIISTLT .
Response: 34800

Query: Return reported NKL Ortho Proliferation Signal 1:50. Input binder: SQVLKH (ligand) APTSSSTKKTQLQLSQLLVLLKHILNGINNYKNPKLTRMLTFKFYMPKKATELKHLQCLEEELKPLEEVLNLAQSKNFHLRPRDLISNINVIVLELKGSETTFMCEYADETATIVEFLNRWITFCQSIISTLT
Response: 18500
